Target: human PAD4 (Homo sapiens)
Construct: human PAD4 (NM_012387), A2-P663, was PCR amplified; His-SUMO (N, cleaved yes)
Experiment: In vitro PAD4 BAEE biochemical assay
Conditions: BAEE substrate 3 mM, 5 nM PAD4, 2 mM calcium chloride; geometric mean of multiple experiments
propertyMeasured: IC50 (nM)

The cases that follow already have their IC50 on record.
COc1cc(C(=O)N[C@H]2CNCC[C@@H]2F)cc2nc(-c3cc4ccc5nc4n3CCCCCc3nnn(C)c3C(=O)N[C@@H]5C)n(C)c12 [Example 183]: 121
COc1cc(C(=O)N2C[C@H](N)[C@@H]3CC[C@H]2C3)cc2nc(-c3cc4ccc5nc4n3CCCCCC[C@@](F)(c3cccc(Cl)n3)C(=O)N[C@@H]5C)n(C)c12 [Example 887]: 52
CO[C@@H]1CCN(C(=O)c2cc(F)c3c(c2)nc(-c2cc4ccc5nc4n2CCCCCc2nc4ccccc4cc2C(=O)N(C)[C@@H]5C)n3C2CC2)C[C@@H]1N [Example 833]: 61
C[C@H]1NC(=O)C(C)(C)CCCCCCn2c(-c3nc4cc(C(=O)N[C@H]5CNCC[C@@H]5F)c(F)cc4n3C3C[C@@H]3F)cc3ccc1nc32 (some centres unmarked) [Example 602]: 97
COc1cc(C(=O)N2[C@H]3CC[C@@H]2[C@H](N)C3)cc2nc(-c3cc4ccc5nc4n3CCCCCCC(=O)Nc3ncccc3-5)n(C)c12 [Example 84]: 89
COc1cc(C(=O)N2C[C@H](N)[C@@H]3CC[C@H]2C3)cc2nc(-c3cc4ccc5nc4n3CC(F)(F)CCCCC(C)(C)C(=O)N[C@@H]5C)n(C)c12 [Example 943]: 48

[P] COc1cc(C(=O)N2C[C@H]3C[C@@H]2[C@@H]3N)cc2nc(-c3cc4ccc5nc4n3CC(F)(F)CCC[C@@H]3C[C@H]3C(=O)N[C@@H]5C)n(C)c12 [Example 666]
[Q] C[C@H]1NC(=O)C(C)(C)CCCCCCn2c(-c3nc4cc(C(=O)N5[C@H]6CC[C@@H]5[C@H](N)C6)c(F)c(F)c4n3C)cc3ccc1nc32 [Example 555]
Exam item: Please indicate which entry, P or Q , has the lower recorded IC50 value. Write down the label of the entry you select.
Marked response: Q
(Q: 56 nM, P: 86 nM)

====

Target: human PAD4 (Homo sapiens, UniProt Q9UM07)
Construct: human PAD4 (NM_012387), A2-P663, was PCR amplified; His-SUMO (N, cleaved yes)
Sequence (Q9UM07 2-663): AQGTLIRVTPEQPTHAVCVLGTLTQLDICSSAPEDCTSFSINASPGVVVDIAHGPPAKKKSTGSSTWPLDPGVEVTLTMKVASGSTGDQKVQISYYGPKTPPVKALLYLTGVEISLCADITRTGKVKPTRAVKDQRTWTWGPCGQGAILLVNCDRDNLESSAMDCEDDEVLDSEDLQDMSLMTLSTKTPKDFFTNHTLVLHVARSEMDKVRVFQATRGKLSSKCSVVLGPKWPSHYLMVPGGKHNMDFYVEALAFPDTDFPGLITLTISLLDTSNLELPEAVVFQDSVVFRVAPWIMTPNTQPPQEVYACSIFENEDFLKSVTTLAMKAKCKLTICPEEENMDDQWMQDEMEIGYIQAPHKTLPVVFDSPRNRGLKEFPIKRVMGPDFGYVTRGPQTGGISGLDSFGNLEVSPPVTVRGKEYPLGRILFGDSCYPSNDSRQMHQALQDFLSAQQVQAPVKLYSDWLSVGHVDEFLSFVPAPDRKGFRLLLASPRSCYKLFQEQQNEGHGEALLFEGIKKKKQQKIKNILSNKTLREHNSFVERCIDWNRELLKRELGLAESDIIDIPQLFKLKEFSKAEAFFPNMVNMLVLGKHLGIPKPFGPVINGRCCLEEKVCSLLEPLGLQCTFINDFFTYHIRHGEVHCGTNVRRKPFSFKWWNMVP
Test: In vitro PAD4 BAEE biochemical assay
Conditions: BAEE substrate 3 mM, 5 nM PAD4, 2 mM calcium chloride; geometric mean of multiple experiments
propertyMeasured: IC50 (nM)

The cases that follow already have their IC50 on record.
COc1cc(C(=O)N2CCC[C@@H](N)C2)cc2nc(-c3cc4ccc5nc4n3CCCCCc3c(cnn3C)C(=O)N[C@@H]5C)n(C)c12 [Example 170]: 118
COc1cc(C(=O)N2C[C@H](N)C[C@@H](F)C2)cc2nc(-c3cc4ccc5nc4n3CC(F)(F)CCC[C@@H]3C[C@H]3C(=O)N[C@@H]5C)n(C)c12 [Example 851]: 20
C[C@H]1NC(=O)[C@@H]2C[C@H]2CCCCCn2c(-c3nc4cc(C(=O)N[C@H]5CNCC[C@@H]5F)c(F)cc4n3CCOC3CC3)cc3ccc1nc32 [Example 600]: 46

[I] C[C@H]1NC(=O)[C@@H]2C[C@H]2CCCCCn2c(-c3nc4cc(C(=O)N5C[C@H](N)[C@@H]6CC[C@H]5C6)cc(OC(F)F)c4n3C)cc3ccc1nc32 [Example 763]
[II] COc1cc(C(=O)N2C[C@H](N)[C@@H]3CC[C@H]2C3)cc2nc(-c3cc4ccc5nc4n3CC(F)(F)CCC[C@@H]3C[C@@]3(C)C(=O)N[C@@H]5C)n(C3CC3)c12 [Example 924]
[III] COc1cc(C(=O)N2CC[C@@H](OC)[C@@H](N)C2)cc2nc(-c3cc4ccc5nc4n3CC(F)(F)CCCCC3(CC(F)(F)C3)C(=O)N[C@@H]5C)n(C)c12 [Example 821]
[IV] C[C@H]1NC(=O)[C@@H]2C[C@H]2CCCCCn2c(-c3nc4cc(C(=O)N[C@H]5CNCC[C@@H]5F)cnc4n3C3CC3)cc3ccc1nc32 [Example 573]
[V] C[C@H]1NC(=O)C(C)(C)CCCCCCn2c(-c3nc4cc(C(=O)N[C@H]5CNCC[C@@H]5F)c(F)cc4n3CC(F)(F)F)cc3ccc1nc32 [Example 419]
Exam item: Thanks in advance: please rank these 5 entries by IC50, highest to lowest. Write out the labels following the order that was asked for.
Marked response: V, III, II, IV, I
(V: 370 nM, III: 102 nM, II: 46 nM, IV: 23 nM, I: 13 nM)

[a] C[C@H]1NC(=O)c2ccc(Cl)nc2CCCCCn2c(-c3nc4cc(C(=O)N5C[C@H](N)[C@@H]6CC[C@H]5C6)cc(F)c4n3C3CC3)cc3ccc1nc32 [Example 472]
[b] C[C@H]1NC(=O)C(C)(C)CCCCCCn2c(-c3nc4cc(C(=O)N[C@H]5CNCC[C@@H]5F)ccc4n3C3CC3)cc3ccc1nc32 [Example 376]
Exam item: Please indicate which entry, a or b , has the lower recorded IC50 value. Write down the label of the entry you select.
Marked response: a
